Give IC50 for every item shown.
- Tested on: 439559-082-T-J2-PDC spheroid viability;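 further: spheroids exposed to compounds for seven days before readout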
- protocol-notes: Anticancer human tumor 439559-082-T-J2-PDC patient-derived colon adenocarcinoma cell line growth inhibition [POLQ]
- experimental-context: curve of first compound; second compound 3.16 µM; spheroids with HUVEC and MSC
- Experimental: Multicellular complex tumor spheroid response to Polymerase (POL) inhibitors (novobiocin, ART-558, RP6685) in combination with a variety of drugs and investigational agents in selected tumor cell lines The POL inhibitors (novobiocin, ART-558, and RP6685) were evaluated both individually and in combination with standard of care and investigational anticancer small molecules within a complex spheroid model of solid tumors. . […]

Annotate the compound C=CC(=O)N1CCN(c2nc(=O)n(-c3c(C)ccnc3C(C)C)c3nc(-c4c(O)cccc4F)c(F)cc23)C(C)C1 (centres undefined) + Cc1cccc(N(C)C(=O)C2C(O)CCN2c2nc(C)cc(C(F)(F)F)c2C#N)c1 with its measured IC50.
> 10 µM

Return value of IC50 for input CCc1c2c(nc3ccc(O)cc13)-c1cc3c(c(=O)n1C2)COC(=O)[C@]3(O)CC + COC1C(OC(N)=O)C(O)C(Oc2ccc3c(O)c(NC(=O)c4ccc(O)c(CC=C(C)C)c4)c(=O)oc3c2C)OC1(C)C , no commentary.
0.332 µM

Hello, please tell me recorded IC50 for this one: C=CCn1c(=O)c2cnc(Nc3ccc(N4CCN(C)CC4)cc3)nc2n1-c1cccc(C(C)(C)O)n1 + Nc1ccc(C#CCN(C(=O)Cc2ncc(C(F)(F)F)cc2C(F)(F)F)c2ccc(F)cc2)nn1
> 1 µM

Indicate its recorded IC50; the compound in question is COc1ccc([C@@H](O)c2cc(-c3ncnc4cc(N5CCOCC5)ccc34)c(F)cc2Cl)nn1 + Nc1ccc(C#CCN(C(=O)Cc2ncc(C(F)(F)F)cc2C(F)(F)F)c2ccc(F)cc2)nn1
> 10 µM

Tell me IC50 reported for CCCS(=O)(=O)Nc1ccc(F)c(C(=O)c2c[nH]c3ncc(-c4ccc(Cl)cc4)cc23)c1F + Nc1ccc(C#CCN(C(=O)Cc2ncc(C(F)(F)F)cc2C(F)(F)F)c2ccc(F)cc2)nn1
8.5 µM

Please indicate IC50 recorded for CCc1cc2c(N3CCc4c(cc(Cn5ccnc5)cc4-c4cn(C)nc4C(F)(F)F)C3=O)cc(C)nc2c(OC)n1 + Nc1ccc(C#CCN(C(=O)Cc2ncc(C(F)(F)F)cc2C(F)(F)F)c2ccc(F)cc2)nn1
> 10 µM

Name the recorded IC50 of the item O=C(c1cc(Cc2n[nH]c(=O)c3ccccc23)ccc1F)N1CCN(C(=O)C2CC2)CC1 + COC1C(OC(N)=O)C(O)C(Oc2ccc3c(O)c(NC(=O)c4ccc(O)c(CC=C(C)C)c4)c(=O)oc3c2C)OC1(C)C in your answer.
> 10 µM

Hello, please tell me recorded IC50 for this one: O=C(c1cc(Cc2n[nH]c(=O)c3ccccc23)ccc1F)N1CCN(C(=O)C2CC2)CC1 + Cc1cccc(N(C)C(=O)C2C(O)CCN2c2nc(C)cc(C(F)(F)F)c2C#N)c1
> 10 µM

Identify measured IC50 corresponding to CC[C@@]1(O)C(=O)OCc2c1cc1n(c2=O)Cc2cc3c(CN(C)C)c(O)ccc3nc2-1 + Nc1ccc(C#CCN(C(=O)Cc2ncc(C(F)(F)F)cc2C(F)(F)F)c2ccc(F)cc2)nn1
> 0.1 µM
